Listed here: items and their measured pKi.
- target_desc: Calpain-1 catalytic subunit (Homo sapiens)
- Sequence (P07384 whole entry): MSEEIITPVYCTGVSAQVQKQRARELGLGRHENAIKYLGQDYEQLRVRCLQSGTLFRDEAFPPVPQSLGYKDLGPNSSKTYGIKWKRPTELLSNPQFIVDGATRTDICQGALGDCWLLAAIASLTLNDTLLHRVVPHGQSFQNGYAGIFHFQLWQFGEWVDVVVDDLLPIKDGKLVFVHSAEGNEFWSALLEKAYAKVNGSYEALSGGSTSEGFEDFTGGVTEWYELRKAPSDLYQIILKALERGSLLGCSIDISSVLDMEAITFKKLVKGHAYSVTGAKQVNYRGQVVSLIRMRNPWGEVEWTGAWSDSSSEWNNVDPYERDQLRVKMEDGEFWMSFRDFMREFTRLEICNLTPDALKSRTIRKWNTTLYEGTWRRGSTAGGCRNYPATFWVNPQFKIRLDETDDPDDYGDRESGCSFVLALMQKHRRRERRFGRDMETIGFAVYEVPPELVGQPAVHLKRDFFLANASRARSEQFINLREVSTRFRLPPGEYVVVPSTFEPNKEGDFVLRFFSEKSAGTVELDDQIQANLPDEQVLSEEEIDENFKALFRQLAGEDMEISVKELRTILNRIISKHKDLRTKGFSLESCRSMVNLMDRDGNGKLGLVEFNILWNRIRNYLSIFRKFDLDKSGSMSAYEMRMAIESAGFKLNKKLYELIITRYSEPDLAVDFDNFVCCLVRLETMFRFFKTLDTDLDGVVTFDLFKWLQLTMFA
- assay_notes: Inhibition of calpain, using human mu-calpain isolated from erythrocytes and Suc-Leu-Tyr-AMC as the fluorogenic substrate
- Assay type: cell-free
pKi: −log10 of the molar value.
measured_attribute: pKi

compound	target_desc	measured_attribute	recorded_value
O=CC(Cc1ccccc1)NC(=O)c1ccccc1Oc1ccccc1 (centres undefined)	Calpain-1 catalytic subunit (Homo sapiens)	pKi	7.30
O=CC(Cc1ccccc1)NC(=O)c1ccccc1/C=C/c1ccccc1 (centres undefined)	Calpain-1 catalytic subunit (Homo sapiens)	pKi	6.85
O=CC(Cc1ccccc1)NC(=O)c1ccccc1OCc1ccc2ccccc2c1 (centres undefined)	Calpain-1 catalytic subunit (Homo sapiens)	pKi	7.30
O=CC(Cc1ccccc1)NC(=O)c1ccccc1/C=C/c1ccc2ccccc2c1 (centres undefined)	Calpain-1 catalytic subunit (Homo sapiens)	pKi	7.82
